# System: DCAMKL3
# Construct: gene DCLK3
# TEST_CONDITIONS: concentration: 1 μM, replicates: in singlicate; n = 1;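 also: KINOMEscan kinase panel screen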
READOUT: %Inh (%)
The reply should be a number in %, with the unit left off.

Guide cases for %Inh, answers given:
INSERT INTO measurements (compound, measured) VALUES
  ('CN1c2ccc(-c3ccc(C(N)=O)cc3)cc2-c2[nH]ncc2S1(=O)=O', 0),
  ('COC(=O)c1cccc(NC(=O)NC2CCN(c3ccnc(Nc4ccc(OC)cc4)n3)C2)c1 (stereo not drawn)', 0),
  ('COc1cc2ncnc(Nc3cccc(Br)c3)c2cc1OC.Cl', 10),
  ('c1ccc(-c2ccnc3[nH]ccc23)cc1', 0);

The record that follows has no %Inh shown yet.
In: %Inh lookup needed for COC(=O)C(NC(=O)NC1CCN(c2ccnc(Nc3ccc(F)cc3)n2)C1)c1ccccc1 (stereo not drawn) , thanks.
Out: 0

###

# Test system: TAK1
# Construct: gene MAP3K7
# TEST_CONDITIONS: concentration: 1 μM, replicates: in singlicate; n = 1
Attribute: %Inh
The reply should be a number in %, with the unit left off.

INSERT INTO results (molecule, study_system, measured) VALUES
  ('Nc1cccc(-c2ccc3c(N)n[nH]c3c2)n1', 'TAK1', 43),
  ('COc1ccc(Nc2nccc(N3CCC(NC(=O)C(C)c4ccc(Cl)cc4)CC3)n2)cc1 (centres unmarked)', 'TAK1', 0),
  ('Cc1c(Cn2c(C)c(C)n3c(=O)cc(N4CCOCC4)nc23)cccc1C(F)(F)F', 'TAK1', 0),
  ('Cc1ccccc1-c1cc(-c2c[nH]nc2-c2ccccn2)ccn1', 'TAK1', 0),
  ('O=C(Nc1n[nH]c2nc(-c3cccs3)c(Br)cc12)C1CCCC1', 'TAK1', 38);

In: %Inh lookup needed for `O=C1NC(=O)C(c2ccc(Cl)cc2)=C1Nc1cccc(Cl)c1` , thanks.
Out: 34

In: %Inh lookup needed for `O=C(Nc1n[nH]c2nc(-c3cccs3)c(Br)cc12)C1CC1` , thanks.
Out: 6

In: %Inh lookup needed for COc1ccc(Nc2nccc(N3CCC(NC(=O)C(C)c4ccc(Cl)cc4)C3)n2)cc1 (centres unmarked) , thanks.
Out: 0

In: %Inh lookup needed for `Cc1nccc(-c2c(-c3ccc(F)cc3)ncn2CCCN2CCOCC2)n1.Cl` , thanks.
Out: 26

###

Attribute: %Inh
# System: MTOR
# TEST_CONDITIONS: concentration: 1 μM, replicates: in singlicate; n = 1
The reply should be a number in %, with the unit left off.

In: Record COC(=O)c1cccc(NC(=O)NC2CCN(c3ccnc(Nc4ccc(F)cc4)n3)C2)c1 (stereo not drawn) [GSK1379725] : what is its %Inh with MTOR?
Out: 7

###

# Test system: BTK
# TEST_CONDITIONS: concentration: 1 μM, replicates: in singlicate; n = 1
READOUT: %Inh
# answer = value followed by unit

Guide cases for %Inh, answers given:
INSERT INTO measurements (molecule, measured) VALUES
  ('c1ccc(-c2ccnc3[nH]ccc23)cc1', '0%'),
  ('CNCc1ccc2nc(NC(=O)c3ccc(C(C)(C)C)cc3)cn2c1', '32%'),
  ('Cc1ccc(NC(=O)c2ccc(Cl)cc2)cc1-c1ccc(C(=O)Nc2ccncc2)cc1', '0%'),
  ('COc1cc2ncnc(Nc3cccc(Br)c3)c2cc1OC.Cl', '30%');

In: %Inh lookup needed for `COc1ccc(-c2coc3ccc(-c4nnc(C)o4)cc23)cc1` , thanks.
Out: 0%

In: %Inh lookup needed for O=C(Nc1n[nH]c2nc(-c3ccco3)c(Br)cc12)C1CCN(Cc2ccccc2)C1.O=C(O)[C@H](O)[C@@H](O)C(=O)O (stereo not drawn) , thanks.
Out: 0%

Source of measurements: paper PMC5540273
